These measurements were taken from patent US12673946B2.

- target-desc: human TRPV4 (Homo sapiens, UniProt Q9HBA0)
- Construct: host or cells: tetracycline-inducible Flp-In T-REx 293 cells
- Sequence (Q9HBA0 whole entry): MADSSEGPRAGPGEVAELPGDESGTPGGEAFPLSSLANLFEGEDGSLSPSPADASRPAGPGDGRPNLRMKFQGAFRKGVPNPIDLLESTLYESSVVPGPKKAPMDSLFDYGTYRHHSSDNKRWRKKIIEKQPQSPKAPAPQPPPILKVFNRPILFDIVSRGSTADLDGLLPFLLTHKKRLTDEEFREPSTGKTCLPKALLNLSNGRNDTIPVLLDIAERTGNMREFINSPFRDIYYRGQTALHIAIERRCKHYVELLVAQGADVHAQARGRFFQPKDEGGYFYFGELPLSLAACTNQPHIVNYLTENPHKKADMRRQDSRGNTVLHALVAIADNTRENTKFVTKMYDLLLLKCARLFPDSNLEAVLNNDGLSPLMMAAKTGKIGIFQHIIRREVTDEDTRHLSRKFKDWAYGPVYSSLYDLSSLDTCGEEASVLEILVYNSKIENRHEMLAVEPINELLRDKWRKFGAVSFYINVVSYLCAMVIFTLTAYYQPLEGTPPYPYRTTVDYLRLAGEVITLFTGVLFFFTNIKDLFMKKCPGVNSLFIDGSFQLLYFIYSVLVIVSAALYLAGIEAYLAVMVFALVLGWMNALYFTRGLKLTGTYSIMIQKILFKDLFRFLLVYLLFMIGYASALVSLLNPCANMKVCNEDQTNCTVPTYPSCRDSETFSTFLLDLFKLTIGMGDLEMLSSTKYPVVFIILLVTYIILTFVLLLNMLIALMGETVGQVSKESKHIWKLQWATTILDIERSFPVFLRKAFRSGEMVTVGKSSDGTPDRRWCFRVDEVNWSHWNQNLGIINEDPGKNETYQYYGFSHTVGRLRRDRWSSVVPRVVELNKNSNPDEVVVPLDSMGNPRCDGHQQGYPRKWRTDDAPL
- experimental-details: Hypotonicity-induced Ca2+ influx (Fluo-4, FDSS)
- Format: cell-based
- assay-context: Flp-In T-REx 293 cells stably expressing human TRPV4, compounds listed by potency bin (<10 nM Tables 96-1/96-2, <3 nM Table 97)
measured-endpoint: IC50

Exam item: Sample O=C(C(O)c1cncc(-c2cccc(C(F)(F)F)c2)c1)N1CCc2nc(C3(c4ccccc4)CC3)[nH]c(=O)c2C1 (centres unmarked) — what was its IC50?
Marked response: < 0.01 µM

Exam item: Param item = O=C(C(O)c1cccc(C(F)(F)F)c1F)N1CCCc2nc(C3(c4cccc(F)c4)CC3)[nH]c(=O)c2C1 (centres unmarked) ; retrieve measured IC50.
Marked response: < 0.01 µM

Exam item: Given the entry `O=C([C@H](O)c1cccc(C(F)(F)F)c1)N1CCCc2nc(C3(c4cncc(C(F)(F)F)c4)CC3)[nH]c(=O)c2C1` , report its measured IC50.
Marked response: < 0.01 µM

Exam item: # get_value(readout='IC50', item= CC(C)(C)c1cccc(-c2cccc(C(O)C(=O)N3CCc4nc(C5(c6ccccc6)CC5)[nH]c(=O)c4C3)c2)c1 (centres unmarked) )
Marked response: < 0.01 µM

Exam item: IC50 for `O=C(Cc1cccc(-c2ccc(Cl)cc2)c1)N1CCCc2nc(C3(c4ccccc4)CC3)[nH]c(=O)c2C1` ?
Marked response: < 0.01 µM

Exam item: Need IC50, item O=C(C(O)c1cccc(-c2ccc(Cl)cc2)c1)N1CCCc2nc(C3(c4ccccc4)CC3)[nH]c(=O)c2C1 (centres unmarked)
Marked response: < 0.01 µM

Exam item: Entry `O=C(Cc1cccc(-c2cccc(Cl)c2)c1)N1CCCc2nc(C3(c4cc(-c5ccccc5)cs4)CC3)[nH]c(=O)c2C1` : reported IC50 = ?
Marked response: < 0.01 µM

Exam item: May I ask what IC50 has been recorded for `O=C(Cc1cccc(C2CC2)c1)N1CCCc2nc(C3(c4cccc(Cl)c4)CC3)[nH]c(=O)c2C1` ?
Marked response: < 0.01 µM

Exam item: Please give the measured IC50 for this compound: `C=C(C)c1cccc(C2(c3nc4c(c(=O)[nH]3)CN(C(=O)[C@H](O)c3cccc(Cl)c3)CCC4)CC2)c1`
Marked response: < 0.003 µM

Exam item: Any idea what its IC50 is? The compound is CC(C)c1cccc(C2(c3nc4c(c(=O)[nH]3)CN(C(=O)C(O)c3cccc(C(C)(C)C)c3)CC4)CC2)c1 (centres unmarked)
Marked response: < 0.01 µM

Exam item: Endpoint output: IC50 of `Cn1c(=O)oc2cc(-c3cccc(C4(c5nc6c(c(=O)[nH]5)CN(C(=O)[C@H](O)c5cccc(C(F)(F)F)c5)CCC6)CC4)c3)ccc21` . Value?
Marked response: < 0.003 µM

Exam item: Item under review: `CC(C)(C)c1cccc(-c2cccc([C@@H](O)C(=O)N3CCCc4nc(C5(c6cccc(Cl)c6)CC5)[nH]c(=O)c4C3)c2)c1` . Reported IC50?
Marked response: < 0.01 µM

Exam item: Record request: IC50 value, item `CC(C)(C)c1cccc(-c2cccc(CC(=O)N3CCCc4nc(C5(c6cccc(Cl)c6)CC5)[nH]c(=O)c4C3)c2)c1`
Marked response: < 0.01 µM

Exam item: Quick one: IC50 of `CC(C)c1csc(C2(c3nc4c(c(=O)[nH]3)CN(C(=O)[C@H](O)c3cccc(C(F)(F)F)c3)CC4)CC2)c1` ?
Marked response: < 0.003 µM
